# target: 5-HT1D receptors (Canis lupus familiaris, UniProt P79250)
# Sequence (P79250 whole entry): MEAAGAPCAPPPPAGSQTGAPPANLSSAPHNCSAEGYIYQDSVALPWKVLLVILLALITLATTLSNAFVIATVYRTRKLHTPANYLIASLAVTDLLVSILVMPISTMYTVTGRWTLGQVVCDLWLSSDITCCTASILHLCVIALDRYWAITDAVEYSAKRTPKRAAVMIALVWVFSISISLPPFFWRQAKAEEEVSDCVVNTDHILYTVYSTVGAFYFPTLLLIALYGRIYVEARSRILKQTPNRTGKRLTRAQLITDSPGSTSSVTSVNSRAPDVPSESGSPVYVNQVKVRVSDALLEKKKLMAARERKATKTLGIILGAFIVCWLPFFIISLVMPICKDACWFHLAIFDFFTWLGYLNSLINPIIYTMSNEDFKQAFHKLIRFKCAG
# Parameters: species or system dog (canine)
# assayContext: dog, read-out: intrinsic (agonist) activity, saphenous vein preparation
Structures can show the parent of a compound that is named as a salt.
observationType: Emax (%)
One number for each entry, in %.

Would you please look over these solved cases?
CC(C)(O)c1cc2c(N3CCN(CCc4ccccc4)CC3)cccc2s1 [Example 41, hydrochloride hemihydrate]; 16
O=C(c1cc2c(N3CCN(CCc4ccccc4)CC3)cccc2s1)N1CCCC1 [Example 57, hydrochloride]; 0
N#Cc1cc2c(N3CCN(CCc4ccc(Cl)cc4)CC3)cccc2s1 [Example 20, monohydrochloride]; 34
CC(=O)c1cc2c(N3CCN(CCc4ccccc4)CC3)cccc2s1 [Example 42, hydrochloride]; 1
OCC=Cc1cc2c(N3CCN(CCc4ccccc4)CC3)cccc2s1 [Example 59, hydrochloride]; 0
O=C(c1cc2c(N3CCN(CCc4ccccc4)CC3)cccc2s1)N1CCCCC1 [Example 56, hydrochloride]; 2

Need Emax for each of these compounds.
1. CCCN1CCN(c2cccc3sc(C(=O)OCC)cc23)CC1 [Example 34, hydrochloride]
2. CCOC(=O)c1cc2c(N3CCN(CCc4ccc(F)cc4)CC3)cccc2s1 [Example 22, monohydrochloride]

12
0

----------
Would you mind telling me the reported Kb of each entry?
# target: 5-HT1D receptors (Canis lupus familiaris, UniProt P79250)
# Parameters: species or system dog (canine)
Where a name gives a salt, the structure may show the parent alone.
Answers are plain numbers, in µM.

Cl.NC(=O)c1cc2c(N3CCN(CCc4ccccc4)CC3)cccc2s1 [Example 9, monohydrochloride]; 0.0102

Need Kb for each of these compounds.
1. CC(=O)c1cc2c(N3CCN(CCc4ccccc4)CC3)cccc2s1 [Example 42, hydrochloride]
2. N#Cc1cc2c(N3CCN(CCc4ccc(Cl)cc4)CC3)cccc2s1 [Example 20, monohydrochloride]
3. OCC=Cc1cc2c(N3CCN(CCc4ccccc4)CC3)cccc2s1 [Example 59, hydrochloride]
4. N#Cc1cc2c(N3CCN(CCc4ccc(F)cc4)CC3)cccc2s1 [Example 24, monohydrochloride]

1. 0.0135
2. 0.0427
3. 0.00055
4. 0.00676

----------
# target: 5HT1D receptor (Bos taurus, UniProt F1MGM3)
# Construct: from tissue
# Sequence (F1MGM3 1-403): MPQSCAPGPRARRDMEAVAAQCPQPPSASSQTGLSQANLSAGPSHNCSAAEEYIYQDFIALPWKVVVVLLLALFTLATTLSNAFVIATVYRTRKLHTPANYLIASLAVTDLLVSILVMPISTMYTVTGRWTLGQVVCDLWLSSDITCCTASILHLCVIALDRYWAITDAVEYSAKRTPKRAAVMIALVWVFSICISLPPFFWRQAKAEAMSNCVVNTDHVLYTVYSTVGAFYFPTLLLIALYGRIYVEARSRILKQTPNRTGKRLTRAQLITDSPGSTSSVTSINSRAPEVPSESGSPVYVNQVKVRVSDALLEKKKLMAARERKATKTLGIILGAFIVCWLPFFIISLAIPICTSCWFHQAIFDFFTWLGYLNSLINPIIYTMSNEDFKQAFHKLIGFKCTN
# experimentalProtocol: 5HT1D receptor binding affinity (procedure of Peroutka et al.)
pIC50: −log10 of the molar value. Where a name gives a salt, the structure may show the parent alone.
# if value of pIC50 reaches 8, tag true (1); if it stays below, tag false (0)

Here's what some known entries look like.
N#Cc1cc2c(N3CCN(CCc4ccc(F)cc4)CC3)cccc2s1 [Example 24, monohydrochloride]; false (0)
Cl.OCc1cc2c(N3CCN(CCc4ccccc4)CC3)cccc2s1 [Example 7, monohydrochloride]; true (1)

Determine whether this compound has pIC50 no lower than 8: COc1ccc(CCN2CCN(c3cccc4sc(CO)cc34)CC2)cc1 [Example 31, monohydrochloride]
true (1)

Determine whether this compound has pIC50 no lower than 8: Cc1ccc(CCN2CCN(c3cccc4sc(C#N)cc34)CC2)cc1 [Example 28, monohydrochloride]
false (0)

Determine whether this compound has pIC50 no lower than 8: CNC(=O)c1cc2c(N3CCN(CCc4ccccc4)CC3)cccc2s1 [Example 10, monohydrochloride]
true (1)

Determine whether this compound has pIC50 no lower than 8: Cc1ccc(CCN2CCN(c3cccc4sc(CO)cc34)CC2)cc1 [Example 27, monohydrochloride]
true (1)

----------
# target: 5HT1D receptor (Bos taurus)
# Construct: from tissue
# experimentalProtocol: 5HT1D receptor binding affinity (procedure of Peroutka et al.)
Counter-ions that a name gives are not always drawn.
observationType: pIC50
One number for each entry, as −log10 of the molar value.

Would you please look over these solved cases?
CC(C)(O)c1cc2c(N3CCN(CCc4ccccc4)CC3)cccc2s1 [Example 41, hydrochloride hemihydrate]; 7.80
NCc1cc2c(N3CCN(CCc4ccccc4)CC3)cccc2s1 [Example 55, dihydrochloride]; 7.92

Need pIC50 for each of these compounds.
1. N#Cc1cc2c(N3CCN(CCc4ccccc4)CC3)cccc2s1 [Example 8, monohydrochloride]
2. Cl.NC(=O)c1cc2c(N3CCN(CCc4ccccc4)CC3)cccc2s1 [Example 9, monohydrochloride]
3. CC(O)c1cc2c(N3CCN(CCc4ccccc4)CC3)cccc2s1 (centres unmarked) [Example 43, hydrochloride]
4. OCc1cc2c(N3CCN(CCc4ccc(Cl)cc4)CC3)cccc2s1
5. N#Cc1cc2c(N3CCN(CCc4ccc(Cl)cc4)CC3)cccc2s1 [Example 20, monohydrochloride]
6. CCOC(=O)c1cc2c(N3CCNCC3)cccc2s1 [Example 5, monohydrochloride]

[7.74, 8.80, 8.52, 8.00, 7.51, 7.33]

----------
Would you mind telling me the reported pIC50 of each entry?
# target: 5HT1D receptor (Bos taurus)
# Construct: from tissue
# experimentalProtocol: 5HT1D receptor binding affinity (procedure of Peroutka et al.)
# assayContext: average of multiple determinations where number in parentheses is given; read-out: IC50 (5HT1D Binding Affinity)
Where a name gives a salt, the structure may show the parent alone.
Give bare numbers, as −log10 of the molar value.

Would you please look over these solved cases?
CCCN1CCN(c2cccc3sc(CO)cc23)CC1 [Example 35, hydrochloride]; 7.18
O=C(NCc1ccccc1)c1cc2c(N3CCN(CCc4ccccc4)CC3)cccc2s1 [Example 13, monohydrochloride]; 7.51
NC(=O)c1cc2c(N3CCN(Cc4ccccc4)CC3)cccc2s1 [Example 4, monohydrochloride]; 7.28
O=C(c1cc2c(N3CCN(CCc4ccccc4)CC3)cccc2s1)N1CCCCC1 [Example 56, hydrochloride]; 6.87
CCOC(=O)c1cc2c(N3CCN(CCc4ccc(Cl)cc4)CC3)cccc2s1 [Example 18, monohydrochloride]; 6.39

Need pIC50 for each of these compounds.
1. N#Cc1cc2c(N3CCN(CCCc4ccccc4)CC3)cccc2s1 [Example 16, monohydrochloride]
2. CN(C)C(=O)c1cc2c(N3CCN(CCc4ccccc4)CC3)cccc2s1 [Example 11, monohydrochloride]

6.76
8.52

Need pIC50 for each of these compounds.
1. NC(=O)c1cc2c(N3CCN(CCCc4ccccc4)CC3)cccc2s1 [Example 17, monohydrochloride]
2. CON(C)C(=O)c1cc2c(N3CCN(CCc4ccccc4)CC3)cccc2s1 [Example 40, hydrochloride]
3. CCOC(=O)c1cc2c(N3CCN(CCc4ccccc4)CC3)cccc2s1 [Example 6, monohydrochloride]
4. O=[N+]([O-])c1ccc(CCN2CCN(c3cccc4sc(CO)cc34)CC2)cc1 [Example 50, hydrochloride]
5. CCCN1CCN(c2cccc3sc(C(=O)OCC)cc23)CC1 [Example 34, hydrochloride]

[8.35, 7.80, 6.97, 8.22, 6.38]

Need pIC50 for each of these compounds.
1. CCOC(=O)c1cc2c(N3CCN(CCCc4ccccc4)CC3)cccc2s1 [Example 14]
2. OCc1cc2c(N3CCN(CCCc4ccccc4)CC3)cccc2s1 [Example 15, monohydrochloride]

1: 6.26; 2: 7.64

----------
# target: UniProt P19327
# Sequence (P19327 whole entry): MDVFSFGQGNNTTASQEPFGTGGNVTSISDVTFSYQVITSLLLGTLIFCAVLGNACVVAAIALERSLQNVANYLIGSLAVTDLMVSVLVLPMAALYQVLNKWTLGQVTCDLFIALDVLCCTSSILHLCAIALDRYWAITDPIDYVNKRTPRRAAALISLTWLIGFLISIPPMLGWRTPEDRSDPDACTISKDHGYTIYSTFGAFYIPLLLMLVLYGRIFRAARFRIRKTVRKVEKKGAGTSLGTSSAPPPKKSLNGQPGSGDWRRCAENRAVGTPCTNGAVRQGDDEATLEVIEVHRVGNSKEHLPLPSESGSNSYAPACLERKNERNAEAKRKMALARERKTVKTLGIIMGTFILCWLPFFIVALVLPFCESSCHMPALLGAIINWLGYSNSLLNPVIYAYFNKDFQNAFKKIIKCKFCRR
# experimentalProtocol: 5HT1A receptor binding affinity (procedure of Gozlan et al.)
pIC50: −log10 of the molar value. Counter-ions that a name gives are not always drawn.
# if value of pIC50 reaches 9, tag Fulfilled; if it stays below, tag Not fulfilled

Here's what some known entries look like.
OCc1cc2c(N3CCN(CCc4ccc(F)cc4)CC3)cccc2s1; Not fulfilled
CCOC(=O)c1cc2c(N3CCNCC3)cccc2s1 [Example 5, monohydrochloride]; Not fulfilled
CC(O)c1cc2c(N3CCN(CCc4ccccc4)CC3)cccc2s1 (centres unmarked) [Example 43, hydrochloride]; Fulfilled

Determine whether this compound has pIC50 no lower than 9: "OCc1cc2c(N3CCN(CCc4ccc(Cl)cc4)CC3)cccc2s1"
Not fulfilled

Determine whether this compound has pIC50 no lower than 9: N#Cc1cc2c(N3CCN(CCc4ccccc4)CC3)cccc2s1 [Example 8, monohydrochloride]
Not fulfilled

----------
# target: 5HT1D receptor (Bos taurus)
# Construct: from tissue
# experimentalProtocol: 5HT1D receptor binding affinity (procedure of Peroutka et al.)
# assayContext: average of multiple determinations where number in parentheses is given; read-out: IC50 (5HT1D Binding Affinity)
Structures can show the parent of a compound that is named as a salt.
Mark TRUE only when IC50 stays strictly below 100 nM. Values equal to the cut-off are FALSE.

CCOC(=O)c1cc2c(N3CCN(CCc4ccc(OC)cc4)CC3)cccc2s1 [Example 30, monohydrochloride]; TRUE
O=C(c1cc2c(N3CCN(CCc4ccccc4)CC3)cccc2s1)N1CCCC1 [Example 57, hydrochloride]; TRUE
CCOC(=O)c1cc2c(N3CCN(CCc4ccc(F)cc4)CC3)cccc2s1 [Example 22, monohydrochloride]; FALSE
OCc1cc2c(N3CCN(Cc4ccccc4)CC3)cccc2s1 [Example 2, monohydrochloride]; FALSE

I'd appreciate it if you could check whether O=C(Nc1ccccc1)c1cc2c(N3CCN(CCc4ccccc4)CC3)cccc2s1 [Example 12, monohydrochloride] has IC50 smaller than 100 nM.
FALSE
